Format: physicochemical
test conditions: 6% of the named additive added to 8% ILCS (potassium) hydro-gel
// reported Viscosity for each item listed

{"molecule": "C[C@@H](O)[C@H](N)C(=O)O [Threonine]", "Viscosity / milliPoise": 30650}
{"molecule": "Cl.NCCCC[C@H](N)C(=O)O [Lysine-hcl]", "Viscosity / milliPoise": 30700}
{"molecule": "N[C@@H](Cc1ccccc1)C(=O)O [Phenylalanine]", "Viscosity / milliPoise": 130}
{"molecule": "N=C(N)NCCC[C@H](N)C(=O)O [Arginine]", "Viscosity / milliPoise": 25600}
{"molecule": "CC[C@H](C)[C@H](N)C(=O)O [Iso-Leucine]", "Viscosity / milliPoise": 29900}
{"molecule": "NCCCC[C@H](N)C(=O)O [Lysine base]", "Viscosity / milliPoise": 26900}
{"molecule": "CC(C)(CO)C(O)C(=O)NCCCO (centres unmarked) [D L Panthenol]", "Viscosity / milliPoise": 28650}
{"molecule": "CSCC[C@H](N)C(=O)O [Methionine]", "Viscosity / milliPoise": 32350}
{"molecule": "Cl.N[C@@H](CS)C(=O)O [Cysteine-HCl]", "Viscosity / milliPoise": 28400}
{"molecule": "N[C@@H](CO)C(=O)O [Serine]", "Viscosity / milliPoise": 22300}
{"molecule": "CC(C)(CO)[C@@H](O)C(=O)NCCCO [D Panthenol]", "Viscosity / milliPoise": 31600}

----------
Assay type: physicochemical
test conditions: 6% of the named additive added to 8% ILCS (potassium) hydro-gel
property measured: Viscosity (milliPoise)

{"compound": "N[C@@H](CC(=O)O)C(=O)O", "property measured": "Viscosity", "experimental value": 25100}
{"compound": "C[C@H](N)C(=O)O", "property measured": "Viscosity", "experimental value": 40700}
{"compound": "CC(C)[C@H](N)C(=O)O", "property measured": "Viscosity", "experimental value": 31850}
{"compound": "N[C@@H](Cc1c[nH]cn1)C(=O)O", "property measured": "Viscosity", "experimental value": 28050}
{"compound": "NC(=O)c1cccnc1 [Niacinamide]", "property measured": "Viscosity", "experimental value": 33800}
{"compound": "N[C@@H](Cc1c[nH]c2ccccc12)C(=O)O", "property measured": "Viscosity", "experimental value": 21}

Source listed as patent US12611380B2.
